targetSystem: human cMET (human, UniProt P08581 25-932)
Sequence (P08581 25-932 limits assumed): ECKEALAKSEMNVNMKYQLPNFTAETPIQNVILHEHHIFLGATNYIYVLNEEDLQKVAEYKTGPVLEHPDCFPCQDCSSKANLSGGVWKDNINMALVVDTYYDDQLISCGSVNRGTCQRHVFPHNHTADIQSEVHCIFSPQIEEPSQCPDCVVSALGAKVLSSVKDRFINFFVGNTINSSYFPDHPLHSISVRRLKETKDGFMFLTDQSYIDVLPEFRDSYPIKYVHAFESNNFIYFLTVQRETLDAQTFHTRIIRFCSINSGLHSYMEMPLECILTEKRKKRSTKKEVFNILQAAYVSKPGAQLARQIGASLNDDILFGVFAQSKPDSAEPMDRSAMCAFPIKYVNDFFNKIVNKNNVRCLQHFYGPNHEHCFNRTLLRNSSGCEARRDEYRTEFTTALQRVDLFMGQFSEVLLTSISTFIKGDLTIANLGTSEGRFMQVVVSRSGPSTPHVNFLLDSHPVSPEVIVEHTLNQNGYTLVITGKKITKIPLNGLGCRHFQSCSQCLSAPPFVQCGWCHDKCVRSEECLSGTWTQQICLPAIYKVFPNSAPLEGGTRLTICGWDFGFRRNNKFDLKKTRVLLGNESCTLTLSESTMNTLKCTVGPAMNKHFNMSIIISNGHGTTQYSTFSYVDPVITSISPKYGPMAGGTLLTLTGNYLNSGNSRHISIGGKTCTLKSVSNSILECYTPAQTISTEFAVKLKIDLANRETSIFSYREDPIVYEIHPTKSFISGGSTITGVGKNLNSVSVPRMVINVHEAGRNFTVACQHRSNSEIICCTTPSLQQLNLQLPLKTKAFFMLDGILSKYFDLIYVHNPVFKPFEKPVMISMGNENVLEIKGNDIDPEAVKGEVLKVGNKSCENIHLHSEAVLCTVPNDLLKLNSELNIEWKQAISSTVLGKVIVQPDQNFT
assayNotes: phage TRF on cMET
attributeMeasured: TRF signal
Give a plain numeric answer without units written out.

Incoming: If you can, please state the reported TRF signal value of KB_A12_cMET_H02 (scFv, V domains shown) VH: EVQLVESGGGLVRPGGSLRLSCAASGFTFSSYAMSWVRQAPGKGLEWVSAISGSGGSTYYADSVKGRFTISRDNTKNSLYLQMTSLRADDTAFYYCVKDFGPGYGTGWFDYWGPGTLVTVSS VL: AVNWYQQLPGKAPKLLIYAAGRCAKRTGTGRCKQDSDCLAGCVCGPNGFCGANSGVSDRFSAAKSGTSASLAINGLRSEDEADYYCAAWDDSLNGYVFGTGTKLTVLG .
Outgoing: 35400

Incoming: If you can, please state the reported TRF signal value of KB_A12_cMET_F06 (scFv, V domains shown) VH: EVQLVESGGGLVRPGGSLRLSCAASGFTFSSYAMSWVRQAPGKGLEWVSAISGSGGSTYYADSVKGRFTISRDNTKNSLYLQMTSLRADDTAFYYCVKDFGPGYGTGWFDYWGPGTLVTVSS VL: AVNWYQQLPGKAPKLLIYAAGRCPHQTGTGRCKQDSDCLAGCVCGPNGFCGANSGVSDRFSAAKSGTSASLAINGLRSEDEADYYCAAWDDSLNGYVFGTGTKLTVLG .
Outgoing: 56200

Incoming: If you can, please state the reported TRF signal value of KB_A12_cMET_H04 (scFv, V domains shown) VH: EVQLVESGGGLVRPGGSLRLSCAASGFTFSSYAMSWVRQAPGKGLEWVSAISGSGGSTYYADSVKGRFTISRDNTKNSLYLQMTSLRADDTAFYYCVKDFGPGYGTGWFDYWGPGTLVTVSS VL: AVNWYQQLPGKAPKLLIYAAGRCPQMTGTGRCKQDSDCLAGCVCGPNGFCGANSGVSDRFSAAKSGTSASLAINGLRSEDEADYYCAAWDDSLNGYVFGTGTKLTVLG .
Outgoing: 113000
